B1: Chromodomain-helicase-DNA-binding protein 7, residues 2564 to 2605; numbered along this chain, Q9P2D1 (parent)
chain: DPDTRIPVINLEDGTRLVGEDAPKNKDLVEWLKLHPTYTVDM

variants of: B1; test: abundance fitness (aPCA) (normalised: wild type 0, dead -1); higher = more abundant; growth selection in yeast, the domain comes from the species named; settings: Homo sapiens
Please note: fulfilled applies when abundance fitness is -0.4 or greater, and not fulfilled applies otherwise.

Prompt: Determine whether this variant has abundance fitness no lower than -0.4: "E20G"
Completion: fulfilled

Prompt: Determine whether this variant has abundance fitness no lower than -0.4: "T39Q"
Completion: fulfilled

Prompt: Determine whether this variant has abundance fitness no lower than -0.4: "M42W"
Completion: not fulfilled

Prompt: Determine whether this variant has abundance fitness no lower than -0.4: "T39E"
Completion: fulfilled

Prompt: Determine whether this variant has abundance fitness no lower than -0.4: "P23Q"
Completion: fulfilled

Prompt: Determine whether this variant has abundance fitness no lower than -0.4: "H35Q"
Completion: not fulfilled

Prompt: Determine whether this variant has abundance fitness no lower than -0.4: "D27Y"
Completion: not fulfilled

Values were extracted from the Human Domainome abundance scans (Beltran et al. 2025).
